measured.target: GABA-A receptor; anion channel
measurement.description: Displacement of [3H]muscimol from GABA-A receptor in Sprague-Dawley rat cerebral cortex
Format: tissue-based
pIC50: −log10 of the molar value.
Lab note: compare pIC50 against 5. Equal or greater, write Condition met. Smaller, write Condition not met.

q: Determine whether measured pIC50 meets or exceeds 5 for COc1c(NC2OC[C@@H](O)[C@@H](O)[C@@H]2O)cc2c(c1OC)-c1ccc(SC)c(=O)cc1[C@@H](NC(C)=O)CC2 (some centres undefined)
a: Condition not met

q: Determine whether measured pIC50 meets or exceeds 5 for COc1c(NC2OC[C@@H](O)[C@H](O)[C@H]2O)cc2c(c1OC)-c1ccc(SC)c(=O)cc1[C@@H](NC(C)=O)CC2 (some centres undefined)
a: Condition met

q: Determine whether measured pIC50 meets or exceeds 5 for "COc1c(N)cc2c(c1OC)-c1ccc(SC)c(=O)cc1[C@@H](NC(C)=O)CC2"
a: Condition met

q: Determine whether measured pIC50 meets or exceeds 5 for COc1c(O[C@@H]2O[C@H](CO)[C@@H](O)[C@H](O)[C@H]2O)cc2c(c1OC)-c1ccc(SC)c(=O)cc1[C@@H](NC(C)=O)CC2 [THIOCOLCHICOSIDE]
a: Condition met

q: Determine whether measured pIC50 meets or exceeds 5 for "COc1c(N[C@H]2O[C@@H](C)[C@H](O)[C@@H](O)[C@H]2O)cc2c(c1OC)-c1ccc(SC)c(=O)cc1[C@@H](NC(C)=O)CC2"
a: Condition not met

q: Determine whether measured pIC50 meets or exceeds 5 for COc1c(NC2O[C@H](CO)[C@@H](O)[C@H](O)[C@H]2O)cc2c(c1OC)-c1ccc(SC)c(=O)cc1[C@@H](NC(C)=O)CC2 (some centres undefined)
a: Condition not met

q: Determine whether measured pIC50 meets or exceeds 5 for "COc1c(N[C@@H]2O[C@H](CO)[C@@H](O)[C@H](O)[C@@H]2O)cc2c(c1OC)-c1ccc(SC)c(=O)cc1[C@@H](NC(C)=O)CC2"
a: Condition not met
